Numbers sourced from ChEMBL document CHEMBL4513216.

The following molecules are shown together with reported cytotoxicity at 10 µM values.
Protocol Details: Toxicity liver stage against HepG2, at 10uM
Type: cell-based
Set-up: test concentration 10 uM, cell line HepG2-A16-CD81EGFP
Setup Conditions: human, HepG2-A16-CD81EGFP cells; read-out: INHIBITION
Quantity Kind: cytotoxicity at 10 µM

1. CCC(C)C(=O)NCc1cccc(N2CCCCC2=O)c1 (configuration not stated) | -6.93%
2. CN(CCO)Cc1nnc(C2CCN(C(=O)C3CCOCC3)CC2)n1C | 2.01%
3. CCCNC(=O)CCC(=O)n1nc(C)c2ccccc21 | 1.23%
4. c1cncc(NCCNC2CSCCSC2)c1 | 15.8%
5. COc1ccc(-c2nc(CCNC(=O)NC3CCC(O)CC3)co2)cc1 (configuration not stated) | 7.66%
6. CC(NC(=O)COc1nc(C(C)(C)C)no1)c1ccco1 (configuration not stated) | -5.41%
7. Cn1cccc1C(=O)N1CCC2(CC1)CN(c1ccccn1)CCO2 | -10.8%
8. Cc1nn(C)c(C)c1C1CCCN1CCCC#N (configuration not stated) | -0.699%
9. Cc1cccc(CN2CCc3c(nc(N4CCC(C)CC4)[nH]c3=O)C2)n1 | -1.75%
10. Cc1cc(C)n(-c2ccc(C(=O)NCC(c3cccs3)N(C)C)cc2)n1 (configuration not stated) | 4.58%
11. COc1cc(C(=O)NS(=O)(=O)c2ccc(C#N)cc2)ccc1C | -6.56%
12. COCCO[C@H]1CCN(C(=O)c2cccnc2)[C@H]1Cc1cnn(C)c1 | 4%

* * *

Protocol Details: Toxicity liver stage against HepG2, at 10uM
Assay type: cell-based
Set-up: test concentration 10 uM, cell line HepG2-A16-CD81EGFP
Setup Conditions: human, HepG2-A16-CD81EGFP cells; read-out: INHIBITION
Recorded cytotoxicity at 10 µM values for a group of compounds are listed next.
Quantity Kind: cytotoxicity at 10 µM (%)

1. Cc1cccc(NC(C)C(=O)Nc2nccs2)c1 (configuration not stated) | -0.524
2. COc1cc(NCCNC(=O)c2ccc3[nH]ccc3c2)cc(OC)c1 | 6.44
3. CC(C)Cc1noc(CN(C)C(=O)C2COc3ccccc3C2)n1 (configuration not stated) | -9.12
4. O=C(CSCC1CC1)N1CCCC2(CCC(=O)N(CC3CC3)C2)C1 (configuration not stated) | 3.8
5. CC1(C(=O)NCc2cc(F)cc(F)c2)CCOCC1 | 4.32
6. CC(C)N1CCC2(CC1)CC(c1cccnc1)C(=O)N2 (configuration not stated) | -67.2
7. O=C(c1ccccc1F)N1CCN(c2ccc(-n3cccc3)nn2)CC1 | 53.2
8. Cc1cc(C)n(C2CCCN(C(=O)Cc3ccc(C#N)cc3)C2)n1 (configuration not stated) | -1.31
9. Cc1nc(CN(C)C2CCN(CCCOc3ccccc3)C2)no1 (configuration not stated) | -9.26
10. Cc1nnc(CN2CCCC2c2c(C)nn(C)c2Cl)o1 (configuration not stated) | 0.174
11. CC(C)NC(=O)C1CN(C(=O)c2ccccc2)CC12CCOCC2 (configuration not stated) | -82.6
12. O=C(c1ccco1)N1C[C@H]2CCCN(Cc3nccs3)[C@H]2C1 | 2.32

* * *

Protocol Details: Toxicity liver stage against HepG2, at 10uM
Type: cell-based
Parameters: test concentration 10 uM, cell line HepG2-A16-CD81EGFP
Setup Conditions: human, HepG2-A16-CD81EGFP cells; read-out: INHIBITION
Quantity Kind: cytotoxicity at 10 µM (%)

1. COCC(=O)N1Cc2nccn2CC(Cn2ncccc2=O)C1 (stereo unspecified) | 5.23
2. CCS(=O)(=O)NC(CCSC)C(=O)Nc1cccc(C)c1C (stereo unspecified) | -2.51
3. CCOC(=O)N1CCN(C(=O)c2sc(-c3ccccc3)nc2C)CC1 | -3.08
4. CN(C)CCOc1cc(NC(=O)COCC(F)(F)F)ccn1 | -2.29
5. CN(C)c1ncc(CNC(=O)Nc2ccc(C(F)(F)F)cc2)n1C | -49.9
6. CCS(=O)(=O)N1C[C@H]2CN(Cc3cccc(F)c3)C(=O)[C@H]2C1 | 0.442
